Attribution: patent US20190351049A1

subject-of-test: MERS-CoV spike protein (EMC/2012), wt (MERS-CoV (isolate EMC/2012), UniProt K9N5Q8 18-1353)
procedure-summary: cell-based or functional assay
endpoint-label: % Neutralization (.025 µg/ml), MERSpp infectivity (%)
All answers are understood in %, so give the number only.

What measured % Neutralization (.025 µg/ml), MERSpp infectivity goes with H2aM15271N (antibody, V domains shown) VH: EVQLVESGGALVQPGGSLRLSCAASGFIFGSYEMNWVRQAPGKGLEWLSYISSSGSTIYYADSVKGRFTISRDNAKNSLYLQMNSLRAEDTAVYYCARERGQLGRGGYYYYGMDVWGQGTTVTVSS VL: EIVLTRSPGTLSLSPGERATLSCRASQSVSSSYLAWYHQKPGQAPRLLMYGTSIRATGIPDRFSGSGSGTDFTLTISRLEPEDFAVYYCQQYGSSPPWTFGQGTKVEIK ?
97
